System: K562 CRISPRi cells
Method Summary: Perturb-seq pooled growth measurement (sgRNA counts, growth phenotype γ, relative activity)
Type: cell-based, human
Conditions: pooled growth phenotype γ of the Perturb-seq sgRNA, day 5, K562 CRISPRi cells
Please go through the items and note down their gamma_day5.
Give bare numbers.

Some entries whose results are on file:
{"columns": ["Substance", "Measured Number"],
 "data": [
  ["BCR_ + _23523092.23-P1P2_13 (guide GCGCGCGGGGCCCATCTCAG; listed as DNA, chemistry not fully specified)", "−0.2183"],
  ["HSPE1_ + _198365089.23-P1P2_03 (guide GGTGACTCGCAGTCCGGCCC; listed as DNA, chemistry not fully specified)", "−0.6427"]
]}

Could you report gamma_day5 for every entry in the following list?
1. ATP5E_ −_57607036.23-P1P2_16 (guide GGTGTCCAGGGGCGCTCTGT; listed as DNA, chemistry not fully specified)
2. HSPA5_ + _128003624.23-P1P2_08 (guide GAGCCGAGTGGGCGACGGTG; listed as DNA, chemistry not fully specified)
3. SEC61A1_ −_127771295.23-P1_01 (guide GGCACTGTCGTGTCTCTCGG; listed as DNA, chemistry not fully specified)
4. DUT_ + _48624411.23-P1P2_00 (guide GCGAGCGAGGAGACCACCGG; listed as DNA, chemistry not fully specified)

−0.1616
−0.7566
−0.4191
−0.7929

====

Please go through the items and note down their Perturb-seq pooled growth sgRNA counts, d5.
Tested on: K562 CRISPRi cells
Method Summary: Perturb-seq pooled growth measurement (sgRNA counts, growth phenotype γ, relative activity)
Assay type: cell-based, human
Conditions: sequencing read counts; 5 days of growth (day seven after transduction)
Answers are plain numbers.

{"columns": ["Substance", "Measured Number"],
 "data": [
  ["TUBB_+_30688126.23-P1_03: sgRNA targeting TUBB, GCGGCAGCAAGGTTCTGAGA, SEQ ID NO: 108 (listed as DNA, chemistry not fully specified)", 1680],
  ["BCR_+_23523092.23-P1P2_04: sgRNA targeting BCR, GCGCGCGGAGCCCGTCTCAG, SEQ ID NO: 127 (listed as DNA, chemistry not fully specified)", 1660]
]}

Given the entry CAD_+_27440280.23-P1P2_13: sgRNA targeting CAD, GGCTGGAGAGAAGCCTGGCG, SEQ ID NO: 105 (listed as DNA, chemistry not fully specified) , what Perturb-seq pooled growth sgRNA counts, d5 was observed with K562 CRISPRi cells?
17097
